Numbers sourced from ChEMBL document CHEMBL4804281.

Molecular target: Putative phosphatidylinositol 4-kinase alpha-like protein P2 (Homo sapiens) (UniProt A4QPH2)
Sequence (A4QPH2 whole entry): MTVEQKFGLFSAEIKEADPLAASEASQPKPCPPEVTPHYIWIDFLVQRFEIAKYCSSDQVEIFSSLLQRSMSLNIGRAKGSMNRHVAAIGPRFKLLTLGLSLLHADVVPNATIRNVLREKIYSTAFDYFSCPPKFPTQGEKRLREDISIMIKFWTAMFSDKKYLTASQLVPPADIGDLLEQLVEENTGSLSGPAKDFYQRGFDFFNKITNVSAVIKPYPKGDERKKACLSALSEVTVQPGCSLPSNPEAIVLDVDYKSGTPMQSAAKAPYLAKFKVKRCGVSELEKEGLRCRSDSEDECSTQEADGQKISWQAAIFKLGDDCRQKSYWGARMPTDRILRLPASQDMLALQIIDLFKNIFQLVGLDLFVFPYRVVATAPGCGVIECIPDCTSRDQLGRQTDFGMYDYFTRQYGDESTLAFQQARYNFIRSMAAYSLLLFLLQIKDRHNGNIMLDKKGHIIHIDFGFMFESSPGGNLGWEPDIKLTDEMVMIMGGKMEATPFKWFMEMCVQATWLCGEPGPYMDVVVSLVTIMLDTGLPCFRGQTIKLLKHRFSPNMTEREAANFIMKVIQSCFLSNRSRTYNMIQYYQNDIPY
Experiment: Inhibition of PI4KAP2 in human NCI-H929 cells at 10 uM by mass spectroscopic analysis relative to control
Format: cell-based
inhibition listing for selected compounds.
measured-metric: inhibition

# substance-smiles, result
measured = [
    ("Nc1ncc(-c2cccc3ncsc23)cc1-c1ccc2c(c1)CCNC2=O", "0%"),
    ("CN(C1CC1)S(=O)(=O)c1ccc(-c2cnc(N)c(-c3ccc4c(c3)CCNC4=O)c2)c(F)c1", "0%"),
    ("Nc1ncc(-c2ccc(NS(=O)(=O)C3CC3)cc2F)cc1-c1ccc2c(c1)CCNC2=O", "0%"),
    ("Nc1ncc(-c2ccc(NS(=O)(=O)C3CC3)cc2OC2CCCCC2)cc1-c1ccc2c(c1)CCNC2=O", "0%"),
    ("COc1cc(NS(=O)(=O)C2CC2)ccc1-c1cnc(N)c(-c2ccc3c(c2)CCNC3=O)c1", "0%"),
    ("Nc1ncc(-c2cccc([N+](=O)[O-])c2F)cc1-c1ccc2c(c1)CCNC2=O", "0%"),
]

----------
Target: Casein kinase I isoform epsilon (Homo sapiens) (UniProt P49674)
Sequence (P49674 whole entry, looked up, the tested form may be a part, canonical isoform): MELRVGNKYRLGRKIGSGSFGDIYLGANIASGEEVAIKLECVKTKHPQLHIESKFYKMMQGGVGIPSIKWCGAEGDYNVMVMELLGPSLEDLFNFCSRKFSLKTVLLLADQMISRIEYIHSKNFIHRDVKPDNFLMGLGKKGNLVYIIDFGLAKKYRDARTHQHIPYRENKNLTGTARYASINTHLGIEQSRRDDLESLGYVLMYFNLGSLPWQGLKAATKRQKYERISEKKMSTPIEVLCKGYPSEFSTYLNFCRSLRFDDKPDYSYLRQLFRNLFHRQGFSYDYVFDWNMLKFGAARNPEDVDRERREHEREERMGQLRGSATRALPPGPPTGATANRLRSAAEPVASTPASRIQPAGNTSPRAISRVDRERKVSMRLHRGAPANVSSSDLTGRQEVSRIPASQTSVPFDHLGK
Test: Inhibition of wild-type human full length CSNK1E (M1 to K416 residues) expressed in bacterial expression system by Kinomescan method
pKd: −log10 of the molar value.

# substance-smiles, pKd
data = [
    ("Nc1ncc(-c2cc([N+](=O)[O-])ccc2F)cc1-c1ccc2c(c1)CCNC2=O", 6.70),
]

----------
Molecular target: Serine/threonine-protein kinase 3 (Homo sapiens) (UniProt Q13188)
Sequence (Q13188 whole entry): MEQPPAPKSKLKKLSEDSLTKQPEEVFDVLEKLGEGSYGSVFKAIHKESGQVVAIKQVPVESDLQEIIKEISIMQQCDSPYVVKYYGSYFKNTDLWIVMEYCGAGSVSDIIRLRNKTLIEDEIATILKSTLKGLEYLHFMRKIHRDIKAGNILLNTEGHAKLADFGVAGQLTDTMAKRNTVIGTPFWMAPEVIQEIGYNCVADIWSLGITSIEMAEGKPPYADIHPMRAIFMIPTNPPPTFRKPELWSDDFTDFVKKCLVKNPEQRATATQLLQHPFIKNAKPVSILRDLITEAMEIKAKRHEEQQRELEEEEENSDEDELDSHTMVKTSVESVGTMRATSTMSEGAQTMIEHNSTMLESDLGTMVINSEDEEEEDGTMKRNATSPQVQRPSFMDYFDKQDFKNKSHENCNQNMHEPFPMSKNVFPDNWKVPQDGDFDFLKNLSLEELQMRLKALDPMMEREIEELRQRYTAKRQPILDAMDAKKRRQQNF
Experiment: Inhibition of STK3 (unknown origin) using fluorescein-labelled Ser/Thr-07 peptide as substrate incubated for 1 hr in presence of ATP at Km concentration by Z-LYTE assay

# substance-smiles, experimental-target, IC50
data = [
    ("CN(C1CC1)S(=O)(=O)c1ccc(-c2cnc(N)c(-c3ccc4c(c3)CCNC4=O)c2)c(F)c1", "Serine/threonine-protein kinase 3 (Homo sapiens) (UniProt Q13188)", "< 0.04 µM"),
    ("Nc1ncc(-c2cccc([N+](=O)[O-])c2F)cc1-c1ccc2c(c1)CCNC2=O", "Serine/threonine-protein kinase 3 (Homo sapiens) (UniProt Q13188)", "< 0.04 µM"),
    ("CN(C1CC1)S(=O)(=O)c1ccc(-c2cnc(N)c(-c3ccc4c(c3)CNC4=O)c2)c(F)c1", "Serine/threonine-protein kinase 3 (Homo sapiens) (UniProt Q13188)", "< 0.04 µM"),
    ("Nc1ncc(-c2cccc(S(=O)(=O)NC3CC3)c2)cc1-c1ccc2c(c1)CCNC2=O", "Serine/threonine-protein kinase 3 (Homo sapiens) (UniProt Q13188)", "0.04 µM"),
    ("COc1cc(S(=O)(=O)N(C)C2CC2)ccc1-c1cnc(N)c(-c2ccc3c(c2)CCNC3=O)c1", "Serine/threonine-protein kinase 3 (Homo sapiens) (UniProt Q13188)", "< 0.04 µM"),
]

----------
Molecular target: Casein kinase I isoform gamma-3 (Homo sapiens) (UniProt Q9Y6M4)
Sequence (Q9Y6M4 whole entry, looked up, the tested form may be a part, canonical isoform): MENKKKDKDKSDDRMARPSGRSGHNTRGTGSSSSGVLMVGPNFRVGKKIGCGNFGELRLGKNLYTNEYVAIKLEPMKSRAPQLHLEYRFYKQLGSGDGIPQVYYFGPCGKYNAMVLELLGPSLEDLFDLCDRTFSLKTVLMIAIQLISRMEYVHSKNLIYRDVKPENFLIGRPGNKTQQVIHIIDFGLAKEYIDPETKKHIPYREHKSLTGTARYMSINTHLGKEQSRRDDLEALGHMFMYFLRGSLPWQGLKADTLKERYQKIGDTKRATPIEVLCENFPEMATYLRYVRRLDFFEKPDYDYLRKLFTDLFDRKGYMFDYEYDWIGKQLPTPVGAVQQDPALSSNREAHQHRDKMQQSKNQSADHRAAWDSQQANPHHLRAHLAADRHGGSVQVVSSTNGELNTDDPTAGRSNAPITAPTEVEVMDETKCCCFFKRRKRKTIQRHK
Test: Inhibition of wild-type human full length CSNK1G3 (M1 to K447 residues) expressed in bacterial expression system by Kinomescan method

# substance-smiles, Kd
records = [
    ("Nc1ncc(-c2cc([N+](=O)[O-])ccc2F)cc1-c1ccc2c(c1)CCNC2=O", "4.68 nM"),
]
